Literature roundup of UniProt O95271 data, read-out pIC50.
Convention used: pIC50 is expressed as -log10 of the molar concentration.

Guide cases for pIC50, answers given:
>>> result_number("Cn1ccc2c(=O)[nH]c(-c3cccnc3)nc21")
6.12
>>> result_number("CCn1ccc2c(=O)[nH]c(-c3ccc(C(F)(F)F)cc3)nc21")
6.75
>>> result_number("CNC(=O)c1nc[nH]c1C(=O)N[C@H]1CC[C@H](C(=O)Nc2c(Br)cc(F)c(F)c2F)CC1")
7.52
>>> result_number("C[C@]1(C(=O)Nc2ccc(F)cc2Cl)CC[C@H](NC(=O)c2cnn3cccnc23)CC1")
6.01
>>> result_number("CN(c1ccc(F)cc1Cl)C(=O)[C@H]1CC[C@H](NC(=O)c2cnn3cccnc23)CC1")
6.85
>>> result_number("CC(C)NCCNC(=O)c1nc[nH]c1C(=O)N[C@H]1CC[C@H](C(=O)Nc2ccc(F)cc2Cl)CC1")
7.43

Consider the additional molecule presented here.
### Prompt Can you look up the measured pIC50 of CC1(C(=O)N2CCC(C3Cc4[nH]c(=O)c5ccccc5c4CO3)C2)CC1 (centres unmarked) for me?
### Response 7.19
